Answer each item with its documented pKi.
# assay-system: human Orexin type 2 receptors (Homo sapiens (Human))
# Sequence (O43614 whole entry): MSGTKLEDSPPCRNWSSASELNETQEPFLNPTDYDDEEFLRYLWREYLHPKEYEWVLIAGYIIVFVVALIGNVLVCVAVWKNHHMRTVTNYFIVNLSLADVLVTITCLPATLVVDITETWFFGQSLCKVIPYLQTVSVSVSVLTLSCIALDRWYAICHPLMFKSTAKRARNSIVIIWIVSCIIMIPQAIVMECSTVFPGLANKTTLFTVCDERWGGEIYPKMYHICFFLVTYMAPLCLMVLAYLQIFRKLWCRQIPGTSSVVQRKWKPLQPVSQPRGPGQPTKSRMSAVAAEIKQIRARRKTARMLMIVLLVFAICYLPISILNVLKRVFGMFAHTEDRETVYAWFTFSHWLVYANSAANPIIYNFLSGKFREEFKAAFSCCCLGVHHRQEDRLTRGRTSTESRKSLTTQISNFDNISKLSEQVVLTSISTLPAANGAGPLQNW
# assay-info: Intracellular calcium measurement (FLIPR), antagonism of Orexin-A at EC80 in CHO-hOX2 cells
In simple prose, pKi is minus the logarithm base ten of a concentration in moles per litre.

Exam item: Consider the compound shown here: Cc1ccc(-c2ncccn2)c(C(=O)N2C(COc3ccc(F)cc3)CC3CC2C3)n1 (racemic) [Example 13] What is its recorded pKi?
Marked response: 6.77

Exam item: Another compound: Cc1nc(C(=O)N2C(COc3ccc(F)cn3)CC3CC2C3)c(-c2ccccc2)s1 (stereo not drawn)
Marked response: 6.12

Exam item: Please do the same for Cc1ccc(-c2nccs2)c(C(=O)N2C(COc3ccc(F)cn3)CC3CC2C3)n1 (stereo not drawn) as well.
Marked response: 6.11

Exam item: Could you do the same for Cc1ccc(-c2ncccn2)c(C(=O)N2C(CCOc3ccc(F)cc3)CC3CC2C3)c1 (racemic) [Example 41] , please?
Marked response: 6.65

Exam item: Entry Cc1ccc(-c2ncccn2)c(C(=O)N2C(COc3ccc(F)cc3)CC3CC2C3)c1 (racemic) [Example 16] please
Marked response: 6.27

Exam item: Subsequent entry: Cc1ccc(-c2ncccn2)c(C(=O)N2C3CC(C3)[C@@H](C)C2COc2ccc(F)cn2)c1 (stereo partly drawn) [Example 74]
Marked response: 6.23

Exam item: Next compound: Cc1ccc(-c2ncccn2)c(C(=O)N2C(CCOc3ccc(F)cc3)CC3CC2C3)c1 (single isomer, unassigned) [Example 42]
Marked response: 6.97

Exam item: Further, for Cc1ccc(-c2nccs2)c(C(=O)N2C(COc3ccc(F)cn3)CC3CC2C3)c1 (racemic) [Example 25] ?
Marked response: 6.68

Exam item: Repeat for the following compound: Cc1ccc(-c2ncccn2)c(C(=O)N2C(COc3ccc(C(F)(F)F)cn3)CC3CC2C3)c1 (racemic) [Example 35]
Marked response: 6.20

Exam item: How about this compound: Cc1ccc(-c2ncccn2)c(C(=O)N2C3CC(C3)[C@@H](C)C2COc2ccc(F)cn2)c1 (single isomer, unassigned) [Example 75]
Marked response: 6.98

Exam item: // query: Cc1ccc(-n2nccn2)c(C(=O)N2C(COc3ccc(F)cc3)CC3CC2C3)c1 (single isomer, unassigned) [Example 12]
Marked response: 5.98

Exam item: Record: Cc1nc(C(=O)N2C(COc3ccc(F)cc3)CC3CC2C3)c(-c2ccccc2)s1 (racemic) [Example 1]
Marked response: 6.53

Exam item: Cc1nc(C(=O)N2C3CC(C3)C(C)C2COc2cc3ccccc3cn2)c(-c2ccccc2)s1 (mixture of isomers) , same question.
Marked response: 5.98

Exam item: Try the compound Cc1ccc(-c2ncccn2)c(C(=O)N2C(COc3ccc(F)cc3)CC3CC2C3)n1 (single isomer, unassigned) [Example 15]
Marked response: 7.28

Exam item: Same question for Cc1ccc(-c2nccs2)c(C(=O)N2C(COc3ccc(F)cc3)CC3CC2C3)c1 (racemic) [Example 7] please.
Marked response: 6.85

Reference source for all entries: patent US11660293B2
